- Test system: S. pneumoniae (QA-10/02)
- assay.procedure: MIC broth microdilution, S. pneumoniae
- Type: cell-based
- assay.conditions: Streptococcus pneumoniae
endpoint.label: log10(MIC) (log10 of the value in µg/mL)
Values are log10 of MIC in µg/mL.

Illustrative cases are given below, each with its answer.
COc1ccc2nccc(CCN3CCC(NCc4ccc(I)cc4)CC3)c2n1 :: -1.82
COc1ccc2nccc(CCN3CCC(NCc4ccccc4)CC3)c2n1 :: 0.30
COc1ccc(CNC2CCN(CCc3ccnc4ccc(OC)nc34)CC2)cn1 :: 0.00
COc1ccc2nccc(CCN3CCC(NCc4ccc(Cl)cc4)CC3)c2n1 :: -0.30
COc1ccc2nccc(CCN3CCC(NCc4ccc(F)cc4)CC3)c2n1 :: 0.30
COc1ccc2nccc(CCN3CCC(NCc4ccc(Br)cc4)CC3)c2n1 :: -0.90

Query string: Looking for the measured log10(MIC) of COc1ccc2nccc(CCN3CCC(NCc4ccc(N(C)C)cc4)CC3)c2n1 , can you help?
Result string: -0.60

Query string: Look up log10(MIC): COc1ccc2nccc(CCN3CCC(NC(=O)c4cn5cccc(C#N)c5n4)CC3)c2n1
Result string: 2.11

* * *

- target.under.test: S. aureus Topo IV (Staphylococcus aureus)
- Construct: purchased Inspiralis (Norwich, UK)
- Sequence (Q2FYS5 whole entry): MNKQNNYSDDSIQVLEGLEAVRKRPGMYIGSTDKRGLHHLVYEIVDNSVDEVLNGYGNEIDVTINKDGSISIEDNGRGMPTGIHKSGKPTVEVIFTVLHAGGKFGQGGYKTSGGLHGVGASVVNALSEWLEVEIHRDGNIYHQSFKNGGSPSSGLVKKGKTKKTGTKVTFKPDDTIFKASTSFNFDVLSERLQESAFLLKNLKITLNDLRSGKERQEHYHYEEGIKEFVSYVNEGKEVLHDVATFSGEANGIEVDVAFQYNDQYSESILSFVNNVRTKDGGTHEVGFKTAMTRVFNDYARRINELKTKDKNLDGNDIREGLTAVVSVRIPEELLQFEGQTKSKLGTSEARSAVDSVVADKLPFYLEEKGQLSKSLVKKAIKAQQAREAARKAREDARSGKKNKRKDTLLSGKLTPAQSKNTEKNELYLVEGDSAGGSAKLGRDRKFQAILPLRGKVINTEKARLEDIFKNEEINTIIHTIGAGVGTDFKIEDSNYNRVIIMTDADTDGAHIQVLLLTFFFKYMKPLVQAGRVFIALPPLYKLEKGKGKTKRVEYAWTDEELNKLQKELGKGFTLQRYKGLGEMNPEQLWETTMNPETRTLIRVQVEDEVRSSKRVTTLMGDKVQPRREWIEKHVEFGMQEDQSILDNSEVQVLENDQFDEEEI
- Sequence (Q2FYS4 whole entry): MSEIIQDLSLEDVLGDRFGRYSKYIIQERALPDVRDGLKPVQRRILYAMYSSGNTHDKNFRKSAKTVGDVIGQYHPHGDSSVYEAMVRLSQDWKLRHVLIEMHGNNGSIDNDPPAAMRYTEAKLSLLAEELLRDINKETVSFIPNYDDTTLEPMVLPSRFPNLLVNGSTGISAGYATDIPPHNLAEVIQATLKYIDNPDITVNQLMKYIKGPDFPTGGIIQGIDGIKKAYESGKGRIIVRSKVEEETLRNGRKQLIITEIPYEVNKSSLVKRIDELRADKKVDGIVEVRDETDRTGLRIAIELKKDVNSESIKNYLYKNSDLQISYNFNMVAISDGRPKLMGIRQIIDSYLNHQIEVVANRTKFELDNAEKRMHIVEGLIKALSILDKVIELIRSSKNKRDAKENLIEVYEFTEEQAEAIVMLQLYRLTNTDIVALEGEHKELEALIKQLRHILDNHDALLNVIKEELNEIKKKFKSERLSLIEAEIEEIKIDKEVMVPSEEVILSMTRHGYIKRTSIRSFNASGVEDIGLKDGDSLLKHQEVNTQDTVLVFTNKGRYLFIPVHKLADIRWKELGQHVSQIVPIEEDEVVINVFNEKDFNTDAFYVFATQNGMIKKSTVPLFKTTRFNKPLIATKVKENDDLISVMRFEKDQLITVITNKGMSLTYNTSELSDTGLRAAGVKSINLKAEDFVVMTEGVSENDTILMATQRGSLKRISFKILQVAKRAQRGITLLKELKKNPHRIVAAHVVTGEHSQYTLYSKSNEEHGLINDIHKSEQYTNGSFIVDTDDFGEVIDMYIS
- assay.procedure: biochemical
- assay.conditions: LE = (1.37/HA) × pIC50
# maps each entry to its LE Topo IV S. aureus
// keep it numeric: no unit symbol after the value

Below, each entry is followed by its recorded LE Topo IV S. aureus result.
COc1ccc2nccc(CCN3CCC(NCc4cnn(C(C)C)c4)CC3)c2n1 :: 0.20
COc1ccc2nccc(CCN3CCC(NCc4ccc(OC(F)F)c(OC)c4)CC3)c2n1 :: 0.18
COc1ccc2nccc(CCN3CCC(NCc4cnn(-c5ccccc5)c4)CC3)c2n1 :: 0.19

Now look at this one.
Query string: Which LE Topo IV S. aureus value belongs to COc1ccc2nccc(CCN3CCC(NCc4ccc(C(F)(F)F)nc4)CC3)c2n1 ?
Result string: 0.20

* * *

- assay.procedure: in vitro
- assay.conditions: PAMPA, pH 7.4
endpoint.label: Papp (×10⁻⁶ cm/s)
Give the value, in units of ×10⁻⁶ cm/s, as a plain number.

Query string: Sample C[C@H]1O[C@@H](O[C@H]2[C@@H](O)C[C@H](O[C@H]3[C@@H](O)C[C@H](O[C@H]4CC[C@@]5(C)[C@H](CC[C@@H]6[C@@H]5C[C@@H](O)[C@]5(C)[C@@H](C7=CC(=O)OC7)CC[C@]65O)C4)O[C@@H]3C)O[C@@H]2C)C[C@H](O)[C@@H]1O [Di goxin, digoxin, reference compound] — what was its Papp?
Result string: 0.58

* * *

- assay.procedure: PAMPA permeability
- assay.conditions: PAMPA, pH 7.4
endpoint.label: Papp at 4 h
Just so you know, I need the unit written after the number.

Known Papp at 4 h results, listed for orientation:
COc1ccc2nccc(CCN3CCC(NCc4cnn(-c5ccccc5)c4)CC3)c2n1 [Compound 5] :: 25.5 ×10⁻⁶ cm/s
COc1ccc2nccc(CCN3CCC(NCc4ccc(C(F)(F)F)nc4)CC3)c2n1 [Compound 21] :: 8.3 ×10⁻⁶ cm/s
COc1ccc2nccc(CCN3CCC(NC(=O)c4cn5cccc(C#N)c5n4)CC3)c2n1 [Compound 7] :: 2.6 ×10⁻⁶ cm/s

Query string: Item under review: COc1ccc2nccc(CCN3CCC(NCc4nc5ccccc5n4C)CC3)c2n1 [Compound 3] . Reported Papp at 4 h?
Result string: 5.4 ×10⁻⁶ cm/s

Query string: Which measured Papp at 4 h value corresponds to COCCc1ccc(OCC(O)CNC(C)C)cc1 (stereo not shown) [Metoprolol, metoprolol, reference compound] ?
Result string: 4.2 ×10⁻⁶ cm/s

Query string: What Papp at 4 h value was documented for this compound, COc1ccc2nccc(CCN3CCC(NCc4ccc(CO)cc4)CC3)c2n1 [Compound 16] ?
Result string: 1.5 ×10⁻⁶ cm/s

Query string: Entry COc1ccc2nccc(CCN3CCC(NCc4ccc(N(C)C)cc4)CC3)c2n1 [Compound 18] : reported Papp at 4 h = ?
Result string: 16.7 ×10⁻⁶ cm/s

* * *

UniProt:Q2FYS4 data, read-out IC50

COc1ccc2nccc(CCN3CCC(NCc4c(C)nc5c(C)cccn45)CC3)c2n1 :: > 100 µM

Query string: Report IC50 for C=CCn1cc(CNC2CCN(CCc3ccnc4ccc(OC)nc34)CC2)cn1 tested on UniProt:Q2FYS4.
Result string: > 100 µM

Query string: // map COc1ccc2nccc(CCN3CCC(NCc4ccc(N(C)C)cc4)CC3)c2n1 to recorded IC50 (system: UniProt:Q2FYS4)
Result string: > 100 µM

Query string: Field: IC50 (UniProt:Q2FYS4). Entry: COc1ccc(CNC2CCN(CCc3ccnc4ccc(OC)nc34)CC2)cn1
Result string: > 100 µM

* * *

- System: E. coli N43 (CGSC# 5583)
- assay.procedure: MIC broth microdilution, E. coli N43
- Type: cell-based
- assay.conditions: Escherichia coli, read-out: E. coli N43 MIC in molar
endpoint.label: MIC (µM)
State the answer as a number, implicitly in µM.

COc1ccc2nccc(CCN3CCC(NCc4cnn(C(C)C)c4)CC3)c2n1 [Compound 9] :: 0.61
COc1ccc2nccc(CCN3CCC(NC(=O)c4cn5cccc(C#N)c5n4)CC3)c2n1 [Compound 7] :: 281

Query string: Quick check: MIC of COc1ccc2nccc(CCN3CCC(NCc4ccc(N(C)C)cc4)CC3)c2n1 [Compound 18] ?
Result string: 2.45

Query string: Looking for the measured MIC of COc1ccc2nccc(CCN3CCC(NCc4ccc(OC(F)F)c(O)c4)CC3)c2n1 [Compound 20] , can you help?
Result string: 1.09

Query string: Can you look up the measured MIC of COc1ccc2nccc(CCN3CCC(NCc4ccc(I)cc4)CC3)c2n1 [Compound 15] for me?
Result string: 0.16

Query string: I would be grateful if you could share the reported MIC for COc1ccc2nccc(CCN3CCC(NCc4ccc(Cl)cc4)CC3)c2n1 [Compound 13] .
Result string: 1.22

* * *

- target.under.test: E. coli Topo IV (Escherichia coli, UniProt P0AFI2)
- Construct: purchased Inspiralis (Norwich, UK)
- Sequence (P0AFI2 whole entry): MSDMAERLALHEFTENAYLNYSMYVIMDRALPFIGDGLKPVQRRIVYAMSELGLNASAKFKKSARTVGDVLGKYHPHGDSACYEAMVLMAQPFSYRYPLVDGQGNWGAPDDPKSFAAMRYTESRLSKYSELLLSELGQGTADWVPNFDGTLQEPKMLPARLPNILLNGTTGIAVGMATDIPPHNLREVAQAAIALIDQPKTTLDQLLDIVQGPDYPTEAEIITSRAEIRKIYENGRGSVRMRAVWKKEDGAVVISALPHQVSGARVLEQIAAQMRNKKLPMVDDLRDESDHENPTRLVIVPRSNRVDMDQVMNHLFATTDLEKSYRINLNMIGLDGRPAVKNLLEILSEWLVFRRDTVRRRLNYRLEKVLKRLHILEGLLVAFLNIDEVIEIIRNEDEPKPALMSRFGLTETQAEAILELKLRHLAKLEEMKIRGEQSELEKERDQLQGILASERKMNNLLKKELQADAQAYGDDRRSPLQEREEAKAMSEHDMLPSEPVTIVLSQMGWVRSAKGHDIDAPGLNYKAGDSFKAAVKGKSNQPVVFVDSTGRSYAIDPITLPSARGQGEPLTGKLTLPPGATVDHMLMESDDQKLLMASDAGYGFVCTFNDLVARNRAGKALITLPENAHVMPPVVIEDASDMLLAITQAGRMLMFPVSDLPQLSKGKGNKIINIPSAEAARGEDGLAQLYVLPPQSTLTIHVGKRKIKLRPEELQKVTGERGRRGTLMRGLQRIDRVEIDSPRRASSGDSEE
- Sequence (P20083 whole entry, further chain): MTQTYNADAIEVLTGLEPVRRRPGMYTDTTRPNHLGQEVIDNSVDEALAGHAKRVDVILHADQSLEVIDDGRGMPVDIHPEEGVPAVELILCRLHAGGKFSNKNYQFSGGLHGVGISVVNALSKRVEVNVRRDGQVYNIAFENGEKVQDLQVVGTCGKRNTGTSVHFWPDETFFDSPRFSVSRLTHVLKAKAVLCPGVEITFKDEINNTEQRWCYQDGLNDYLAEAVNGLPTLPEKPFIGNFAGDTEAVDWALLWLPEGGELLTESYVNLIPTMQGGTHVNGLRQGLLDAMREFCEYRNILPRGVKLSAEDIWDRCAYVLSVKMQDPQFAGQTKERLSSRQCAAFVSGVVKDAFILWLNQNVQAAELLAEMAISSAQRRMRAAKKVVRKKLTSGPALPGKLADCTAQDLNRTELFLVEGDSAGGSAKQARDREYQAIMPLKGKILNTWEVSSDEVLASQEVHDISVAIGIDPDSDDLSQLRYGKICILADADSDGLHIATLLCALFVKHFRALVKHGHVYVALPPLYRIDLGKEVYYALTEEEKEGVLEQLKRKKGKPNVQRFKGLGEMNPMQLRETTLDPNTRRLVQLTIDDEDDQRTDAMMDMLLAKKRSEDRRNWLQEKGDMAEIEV
- assay.procedure: Topo IV Relaxation High Throughput Plate assay, E. coli
- Type: biochemical
- assay.conditions: mean of two to four measurements; read-out: Topoisomerase IV IC50 E. coli
endpoint.label: IC50
Answer with the figure and its unit, nothing else.

COc1ccc2nccc(CCN3CCC(NCc4ccc(I)cc4)CC3)c2n1 :: 21 nM
COc1ccc2nccc(CCN3CCC(NCc4ccc(Br)cc4)CC3)c2n1 :: 42 nM

Next up:
Query string: So what's the measured IC50 for this one? COc1ccc2nccc(CCN3CCC(NCc4ccc(Cl)cc4)CC3)c2n1
Result string: 31 nM

* * *

Overview of recorded Papp at 4 h for various compounds
- assay.procedure: PAMPA permeability
- assay.conditions: PAMPA, pH 7.4
Enter your answer as a number in ×10⁻⁶ cm/s; do not include the unit.

COc1ccc(CNC2CCN(CCc3ccnc4ccc(OC)nc34)CC2)cn1 :: 8.2
COc1ccc2nccc(CCN3CCC(NCc4ccc(Cl)cc4)CC3)c2n1 :: 13.2
COc1ccc2nccc(CCN3CCC(NCc4ccc(OC(F)F)c(O)c4)CC3)c2n1 :: 3
COc1ccc2nccc(CCN3CCC(NCc4ccc(Br)cc4)CC3)c2n1 :: 31.5

Lab note: next compound to report on.
Query string: What does the data say about its Papp at 4 h? Entry: COc1ccc2nccc(CCN3CCC(NCc4cnn(-c5ccccc5)n4)CC3)c2n1
Result string: 10.6

* * *

- target.under.test: S. aureus DNA gyrase (Staphylococcus aureus, UniProt P20831)
- Construct: purchased Inspiralis (Norwich, UK)
- Sequence (P20831 whole entry): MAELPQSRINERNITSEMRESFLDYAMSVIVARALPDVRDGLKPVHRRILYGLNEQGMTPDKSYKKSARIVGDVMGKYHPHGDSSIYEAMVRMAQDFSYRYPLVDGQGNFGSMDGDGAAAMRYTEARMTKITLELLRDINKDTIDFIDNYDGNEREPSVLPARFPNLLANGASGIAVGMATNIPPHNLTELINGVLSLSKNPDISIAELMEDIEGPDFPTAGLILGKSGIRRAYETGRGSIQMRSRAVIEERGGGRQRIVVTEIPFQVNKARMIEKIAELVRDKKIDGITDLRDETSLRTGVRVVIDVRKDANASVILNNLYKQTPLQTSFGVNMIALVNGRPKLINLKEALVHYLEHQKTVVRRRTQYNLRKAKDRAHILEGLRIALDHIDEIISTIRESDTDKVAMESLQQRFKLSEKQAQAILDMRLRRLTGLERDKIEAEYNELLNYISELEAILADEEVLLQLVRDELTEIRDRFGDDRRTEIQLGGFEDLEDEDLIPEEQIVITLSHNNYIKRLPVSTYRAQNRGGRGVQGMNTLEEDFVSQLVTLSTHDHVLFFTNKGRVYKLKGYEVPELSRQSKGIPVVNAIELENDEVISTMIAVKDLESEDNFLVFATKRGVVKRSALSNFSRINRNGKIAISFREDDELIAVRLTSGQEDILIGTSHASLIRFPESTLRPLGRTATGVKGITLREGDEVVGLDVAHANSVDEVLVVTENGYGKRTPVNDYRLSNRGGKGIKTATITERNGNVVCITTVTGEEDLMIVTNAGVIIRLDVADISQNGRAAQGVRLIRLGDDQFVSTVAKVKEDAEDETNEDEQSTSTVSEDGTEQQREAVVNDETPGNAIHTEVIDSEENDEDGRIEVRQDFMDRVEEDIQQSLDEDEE
- Sequence (P0A0K8 whole entry partner): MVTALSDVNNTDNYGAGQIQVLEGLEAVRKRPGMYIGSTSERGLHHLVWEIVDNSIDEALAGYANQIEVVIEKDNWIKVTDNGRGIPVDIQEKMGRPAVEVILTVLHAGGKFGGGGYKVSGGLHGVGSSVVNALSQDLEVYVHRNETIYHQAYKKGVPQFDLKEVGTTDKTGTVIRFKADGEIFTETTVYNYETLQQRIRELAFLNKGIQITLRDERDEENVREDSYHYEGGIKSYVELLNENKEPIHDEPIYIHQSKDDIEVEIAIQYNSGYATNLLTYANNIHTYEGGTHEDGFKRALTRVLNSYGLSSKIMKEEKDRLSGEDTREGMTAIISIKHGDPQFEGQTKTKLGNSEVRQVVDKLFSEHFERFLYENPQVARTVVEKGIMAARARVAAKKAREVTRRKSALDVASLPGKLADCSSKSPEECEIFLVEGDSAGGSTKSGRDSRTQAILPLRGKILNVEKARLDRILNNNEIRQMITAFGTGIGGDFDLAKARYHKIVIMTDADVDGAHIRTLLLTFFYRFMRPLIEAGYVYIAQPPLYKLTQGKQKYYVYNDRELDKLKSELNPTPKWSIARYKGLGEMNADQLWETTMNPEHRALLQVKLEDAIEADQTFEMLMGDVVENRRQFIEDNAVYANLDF
- assay.procedure: biochemical
- Assay type: biochemical
- assay.conditions: fluorescence plate supercoiling assay, mean of two to four measurements
Below, each of the molecules is paired with its reported IC50 value.

Answered examples (4):
COc1ccc2nccc(CCN3CCC(NCc4ccc(C(N)=O)cc4)CC3)c2n1 :: 1820 nM
COc1ccc2nccc(CCN3CCC(NCc4cnn(C(C)C)c4)CC3)c2n1 :: 160 nM
COc1ccc2nccc(CCN3CCC(NCc4c(C)nc5c(C)cccn45)CC3)c2n1 :: > 100000 nM
COc1ccc2nccc(CCN3CCC(NCc4cnn(-c5ccccc5)n4)CC3)c2n1 :: 240 nM

Query string: Entry COc1ccc2nccc(CCN3CCC(NCc4ccc(OC(F)F)c(OC)c4)CC3)c2n1 , system S. aureus DNA gyrase (Staphylococcus aureus, UniProt P20831): what IC50 was measured?
Result string: 350 nM

* * *

- Test system: S. agalactiae RDK 047 (QA-990/02)
- assay.procedure: MIC broth microdilution, S. agalactiae
- Assay type: cell-based
- assay.conditions: Streptococcus agalactiae; read-out: MIC S. agalactiae RDK 047 (QA-990/02)
endpoint.label: log10 of MIC (log10 of the value in µg/mL)
Answers are given as log10 of MIC in µg/mL.

COc1ccc2nccc(CCN3CCC(NCc4cnn(C(C)C)c4)CC3)c2n1 :: -0.30
COc1ccc2nccc(CCN3CCC(NCc4ccccc4)CC3)c2n1 :: 1.20
COc1ccc2nccc(CCN3CCC(NCc4cnn(-c5ccc(F)cc5)c4)CC3)c2n1 :: 0.30
COc1ccc2nccc(CCN3CCC(NCc4ccc(Br)cc4)CC3)c2n1 :: -0.30

Query string: Item COc1ccc2nccc(CCN3CCC(NCc4ccc(I)cc4)CC3)c2n1 has what recorded log10 of MIC?
Result string: -0.90

Query string: I'd like to know its log10 of MIC. The compound in question is COc1ccc2nccc(CCN3CCC(NCc4ccc(F)cc4)CC3)c2n1
Result string: 0.90

Query string: Entry under review: COc1ccc2nccc(CCN3CCC(NCc4cnn(-c5ccccc5)c4)CC3)c2n1 . Reported log10 of MIC?
Result string: 0.00

Query string: What does the data say about its log10 of MIC? Entry: COc1ccc2nccc(CCN3CCC(NCc4ccc(N(C)C)cc4)CC3)c2n1
Result string: -0.60

Query string: Need log10 of MIC, item COc1ccc2nccc(CCN3CCC(NCc4ccc(C(F)(F)F)nc4)CC3)c2n1
Result string: 0.60

Query string: May I ask what log10 of MIC has been recorded for COc1ccc(CNC2CCN(CCc3ccnc4ccc(OC)nc34)CC2)cn1 ?
Result string: 0.00

Query string: Would you mind telling me what log10 of MIC value was observed for C=CCn1cc(CNC2CCN(CCc3ccnc4ccc(OC)nc34)CC2)cn1 ?
Result string: 0.60

Query string: What measured log10 of MIC goes with COc1ccc2nccc(CCN3CCC(NCc4ccc(Cl)cc4)CC3)c2n1 ?
Result string: 0.00
